# target_entity: KRas-G12D (Homo sapiens, UniProt P01116, G12D)
# Construct: insert the HiBiT tag onto the N-terminus of one or more of the endogenous KRas alleles; host or cells: AsPC-1 HiBiT-KRasG12D knock-in clone (one tagged allele, two untagged KRasG12D alleles)
# Sequence (P01116 1-188 isoform P01116-2 G12D): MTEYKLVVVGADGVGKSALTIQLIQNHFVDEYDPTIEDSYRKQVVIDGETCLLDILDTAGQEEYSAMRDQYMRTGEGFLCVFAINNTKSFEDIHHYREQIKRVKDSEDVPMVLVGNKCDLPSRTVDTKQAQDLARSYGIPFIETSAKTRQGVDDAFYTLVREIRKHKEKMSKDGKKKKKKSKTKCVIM
# measurement_notes: HiBiT Degradation Assay (G12D), AsPC-1 HiBiT-KRasG12D cells, 24 hr
# Format: cell-based
# experimental_parameters: AsPC-1 cells
measure: DC50

INSERT INTO results (compound, reported) VALUES
  ('C#Cc1c(F)ccc2cc(O)cc(-c3ncc4c(N5CC6CCC(C5)N6)nc(OC[C@@H]5C[C@@H](OC6CCN(CC7CCN(c8ccc9c(c8F)n(C)c(=O)n9C8CCC(=O)NC8=O)CC7)CC6)CN5C)nc4c3F)c12 (stereo partly drawn)', '< 5100 nM'),
  ('CCc1cccc2cc(O)cc(-c3nc(N4CC5CCC(C4)N5)c4cnc(OCCN5CCC(CC6CCN(c7cccc8c7CN(C7(C)CCC(=O)NC7=O)C8=O)CC6)CC5)nc4c3F)c12 (stereo not drawn)', '> 1000 nM'),
  ('C#Cc1c(F)ccc2cccc(-c3ncc4c(N5CC6CCC(C5)N6)nc(OC[C@@]56CCCN5[C@H](CN5CCN(c7ccc8c(c7)CN(C7CCC(=O)NC7=O)C8=O)CC5)CC6)nc4c3F)c12 (stereo partly drawn)', '250 to 1000 nM'),
  ('CCc1cccc2cc(O)cc(-c3ncc4c(N5CC6CCC(C5)N6)nc(OCCN5CCC6(CC5)CN(c5cccc7c5CN(C5CCC(=O)NC5=O)C7=O)C6)nc4c3F)c12 (stereo not drawn)', '> 1000 nM'),
  ('CCc1cccc2cc(O)cc(-c3ncc4c(N5CC6CCC(C5)N6)nc(OCCN5CCC(CCC6CCN(c7ccc8c(c7)C(=O)N(C7CCC(=O)NC7=O)C8=O)CC6)CC5)nc4c3F)c12 (stereo not drawn)', '> 1000 nM'),
  ('C#Cc1c(F)ccc2cc(O)cc(-c3ccc4c(N5CC6CCC(C5)N6)nc(OCCN5CCC(CC6CCN(CC7CCN(c8ccc9c(c8F)n(C)c(=O)n9C8CCC(=O)NC8=O)CC7)CC6)CC5)nc4c3F)c12 (stereo not drawn)', '< 5100 nM');

###

# maps each entry to its DC50
# target_entity: KRas-G12D (Homo sapiens, UniProt P01116, G12D)
# Construct: insert the HiBiT tag onto the N-terminus of one or more of the endogenous KRas alleles; host or cells: AsPC-1 HiBiT-KRasG12D knock-in clone (one tagged allele, two untagged KRasG12D alleles)
# measurement_notes: HiBiT Degradation Assay (G12D), AsPC-1 HiBiT-KRasG12D cells, 24 hr
# Type: cell-based
# experimental_parameters: AsPC-1 cells
measure: DC50

INSERT INTO results (molecule, measure, reported) VALUES
  ('C#Cc1c(F)ccc2cc(O)cc(-c3ncc4c(N5CC6CCC(C5)N6)nc(OCCN5CCC(CC6CCN(CC7CCN(c8ccc9c(c8F)n(C(C)C)c(=O)n9C8CCC(=O)NC8=O)CC7)CC6)CC5)nc4c3F)c12 (stereo not drawn) [Compound 217]', 'DC50', '< 5.1 µM'),
  ('C#Cc1c(F)ccc2cc(O)cc(-c3cnc4c(N5CC6CCC(C5)N6)nc(OCCN5CCC(CC6CCN(CC7CCN(c8ccc9c(c8F)CN(C8CCC(=O)NC8=O)C9=O)CC7)CC6)CC5)nc4c3)c12 (stereo not drawn) [Compound 107]', 'DC50', '> 1 µM'),
  ('CCc1c(F)ccc2cc(O)cc(-c3ncc4c(N5CC6CCC(C5)N6)nc(OC[C@@H]5C[C@@H](OC6CCN(CC7CCN(c8ccc9c(c8)n(C)c(=O)n9C8CCC(=O)NC8=O)CC7)CC6)CN5C)nc4c3F)c12 (stereo partly drawn) [Compound 207]', 'DC50', '< 5.1 µM');

###

# target_entity: KRas-G12D (Homo sapiens, UniProt P01116, G12D)
# Construct: insert the HiBiT tag onto the N-terminus of one or more of the endogenous KRas alleles; host or cells: AsPC-1 HiBiT-KRasG12D knock-in clone (one tagged allele, two untagged KRasG12D alleles)
# measurement_notes: HiBiT Degradation Assay (G12D), AsPC-1 HiBiT-KRasG12D cells, 24 hr
# Format: cell-based
# experimental_parameters: AsPC-1 cells
Overview of reported DC50 across a group of compounds:
measure: DC50

INSERT INTO results (compound, reported) VALUES
  ('CCc1cccc2cc(O)cc(-c3ncc4c(N5CC6CCC(C5)N6)nc(OC[C@]56CCCN5[C@@H](COC(=O)N5CCN(c7cccc8c7CN(C7CCC(=O)NC7=O)C8=O)CC5)CC6)nc4c3F)c12 (stereo partly drawn) [Compound 61]', '0.25 to 1 µM'),
  ('C#Cc1c(F)ccc2cc(O)cc(-c3ncc4c(N5CC6CCC(C5)N6)nc(OC[C@@H]5C[C@@H](OC6CCN(CC7CCN(c8ccc9c(c8)CN(C8CCC(=O)NC8=O)C9=O)CC7)CC6)CN5CC)nc4c3F)c12 (stereo partly drawn) [Compound 165]', '< 5.1 µM'),
  ('CCc1c(F)ccc2cc(O)cc(-c3ncc4c(N5CC6CCC(C5)N6)nc(OCCN5CCC(CC6CCN(CC7CCN(c8cccc9c8n(C)c(=O)n9C8CCC(=O)NC8=O)CC7)CC6)CC5)nc4c3F)c12 (stereo not drawn) [Compound 172]', '< 5.1 µM');

###

Documented DC50 across a set of molecules
# target_entity: KRas-G12D (Homo sapiens, UniProt P01116, G12D)
# Construct: insert the HiBiT tag onto the N-terminus of one or more of the endogenous KRas alleles; host or cells: AsPC-1 HiBiT-KRasG12D knock-in clone (one tagged allele, two untagged KRasG12D alleles)
# measurement_notes: HiBiT Degradation Assay (G12D), AsPC-1 HiBiT-KRasG12D cells, 24 hr
# Type: cell-based
# experimental_parameters: AsPC-1 cells
measure: DC50

INSERT INTO measurements (molecule, reported) VALUES
  ('C#Cc1c(F)ccc2cc(O)cc(-c3ncc4c(N5CC6CCC(C5)N6)nc(OC[C@@H]5C[C@@H](OC6CCN(CC7CCN(c8ccc9c(c8)n(C)c(=O)n9C8CCC(=O)NC8=O)CC7)CC6)CN5C)nc4c3F)c12 (stereo partly drawn)', '< 5.1 µM'),
  ('CCc1cccc2cc(O)cc(-c3ncc4c(N5CC6CCC(C5)N6)nc(OCCN5CCC(CC6CCN(c7ccc8c(c7)C(=O)N(C7CCC(=O)NC7=O)C8=O)CC6)CC5)nc4c3F)c12 (stereo not drawn)', '> 1 µM'),
  ('C#Cc1c(F)ccc2cc(O)cc(-c3ncc4c(N5CC6CCC(C5)N6)nc(OCCN5CCC(CC6CCN(CC7CCN(c8ccc9c(c8F)CN([C@H]8CCC(=O)NC8=O)C9=O)CC7)CC6)CC5)nc4c3F)c12', '< 5.1 µM'),
  ('C#Cc1c(F)ccc2cc(O)cc(-c3ncc4c(N5CC6CCC(C5)N6)nc(OCCN5CCC(CC6CCN(c7ccc8c(c7)n(C)c(=O)n8C7CCC(=O)NC7=O)CC6)CC5)nc4c3F)c12 (stereo not drawn)', '< 5.1 µM'),
  ('CCc1cccc2cc(O)cc(-c3ncc4c(N5CC6CCC(C5)N6)nc(OCCN5CCC(CC6CCN(CC7CCN(c8cccc9c8CN(C8CCC(=O)N(C)C8=O)C9=O)CC7)CC6)CC5)nc4c3F)c12 (stereo not drawn)', '> 1 µM'),
  ('CCc1cccc2cc(O)cc(-c3ncc4c(N5CC6CCC(C5)N6)nc(OCCN5CCC(CC6CCN(c7cccc8c7C(=O)N(C7CCC(=O)NC7=O)C8=O)CC6)CC5)nc4c3F)c12 (stereo not drawn)', '0.25 to 1 µM'),
  ('C#Cc1c(F)ccc2cc(O)cc(-c3ncc4c(N5CC6CCC(C5)N6)nc(OCCN5CCC(CN6CCC(CC7CCN(c8ccc9c(c8F)n(C)c(=O)n9C8CCC(=O)NC8=O)CC7)CC6)CC5)nc4c3F)c12 (stereo not drawn)', '< 5.1 µM'),
  ('C#Cc1c(F)ccc2cc(O)cc(-c3ncc4c(N5CC6CCC(C5)N6)nc(OCCN5CCC(CN6CCN(CC7CCN(c8ccc9c(c8)n(C(C)C)c(=O)n9C8CCC(=O)NC8=O)CC7)CC6)CC5)nc4c3F)c12 (stereo not drawn)', '< 5.1 µM'),
  ('C#Cc1c(F)ccc2cc(O)cc(-c3ncc4c(N5CC6CCC(C5)N6)nc(OCCN5CCC(CC6CCN(CC7CCN(c8cc(C)c9c(c8F)CN(C8CCC(=O)NC8=O)C9=O)CC7)CC6)CC5)nc4c3F)c12 (stereo not drawn)', '< 5.1 µM'),
  ('CCc1cccc2cc(O)cc(-c3ncc4c(N5CC6CCC(C5)N6)nc(OCCN5CCN(CC6CCN(C(=O)c7ccc(OC)c(N8CCC(=O)NC8=O)c7)CC6)CC5)nc4c3F)c12', '> 1 µM'),
  ('C#Cc1c(F)ccc2cc(O)cc(-c3ncc4c(N5CC6CCC(C5)N6)nc(OCCN5CCC(CC6CCN(CC7CCN(c8ccc9c(c8)CN(C8CCC(=O)NC8=O)C9=O)CC7)CC6)CC5)nc4c3F)c12 (stereo not drawn)', '< 5.1 µM'),
  ('C#Cc1c(F)ccc2cc(O)cc(-c3ncc4c(N5CC6CCC(C5)N6)nc(OCCN5CCC(CCC6CCN(c7cccc8c7CN(C7CCC(=O)NC7=O)C8=O)CC6)CC5)nc4c3F)c12 (stereo not drawn)', '0.1 to 5.25 µM');

Recorded values, source patent US12448399B2.
